Quick reference for zone of inhibition at 200 µg/disc among some compounds
tested on: S. aureus ATCC 29213; assay: Disc diffusion assay (DDA); assay type: cell-based, Staphylococcus aureus; settings: Staphylococcus aureus, ATCC29213; S. aureus ATCC 29213; unsupplemented agar; 200 μg per disc (thymoquinone 50 μg, 2,6-dimethoxy-p-benzoquinone 100 μg); read-out: DDA (diameter of zone of inhibition)

- Compound: "CC(C)(C)c1cc(C(C)(C)C)c(O)cc1O"
  zone of inhibition at 200 µg/disc: "8.09 mm"
- Compound: "Cc1cccc(O)c1O"
  zone of inhibition at 200 µg/disc: "19.8 mm"
- Compound: "CC(C)(C)C1=CC(=O)C=C(C(C)(C)C)C1=O"
  zone of inhibition at 200 µg/disc: "0 mm"
- Compound: "CC(C)(C)C1=CC(=O)C=CC1=O"
  zone of inhibition at 200 µg/disc: "58.5 mm"
- Compound: "CC(C)(C)c1cc(O)ccc1O [TBHQ, 2-t-butyl hydroquinone]"
  zone of inhibition at 200 µg/disc: "41.8 mm"
- Compound: "O=C1C=CC(=O)C=C1"
  zone of inhibition at 200 µg/disc: "29.3 mm"
- Compound: "CC(C)(C)c1cc(O)c(O)c(C(C)(C)C)c1"
  zone of inhibition at 200 µg/disc: "18.8 mm"
- Compound: "CC1=CC(=O)C(Cl)=CC1=O"
  zone of inhibition at 200 µg/disc: "34.5 mm"
- Compound: "CC(C)(C)C1=CC(=O)C(=O)C(C(C)(C)C)=C1"
  zone of inhibition at 200 µg/disc: "23.4 mm"
- Compound: "Cc1ccc(O)c(O)c1"
  zone of inhibition at 200 µg/disc: "18.3 mm"
